Source: the supplement of paper PMC3334620

System under test: Yap3 (UniProt P38749)
Sequence: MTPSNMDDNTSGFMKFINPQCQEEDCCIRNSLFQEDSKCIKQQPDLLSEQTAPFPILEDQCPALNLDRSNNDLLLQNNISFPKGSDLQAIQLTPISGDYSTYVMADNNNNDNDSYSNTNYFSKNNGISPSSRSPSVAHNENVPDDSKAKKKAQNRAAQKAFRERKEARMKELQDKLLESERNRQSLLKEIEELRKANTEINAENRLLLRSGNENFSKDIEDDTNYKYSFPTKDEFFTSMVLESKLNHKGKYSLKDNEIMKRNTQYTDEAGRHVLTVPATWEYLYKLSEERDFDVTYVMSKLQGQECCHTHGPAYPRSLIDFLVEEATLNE
Method notes: PBM E-score (8-mer binding enrichment) (E-score (-0.5 to 0.5)); higher = stronger / more preferred TF binding
Condition summary: protein concentration: 100 nM; construct: GST-full length
The full ranking holds about 33,000 sequences; the median of “E-score (-0.5 to 0.5)” is about -0.0034, and the highest 2% start at about 0.25. Many of the other results were omitted from the sample, so the highest values are more common in it than they were.
Class membership depends on PBM E-score alone; the intervals are Low = under 0.05, Mid = from 0.05 up to 0.2, High = 0.2 and over

[[record]]
input_sequence = "ATTAAACG"
system_under_test = "Yap3 (UniProt P38749)"
answer_label = "High"

[[record]]
input_sequence = "CTCGGTAA"
system_under_test = "Yap3 (UniProt P38749)"
answer_label = "Mid"

[[record]]
input_sequence = "AATATCAA"
system_under_test = "Yap3 (UniProt P38749)"
answer_label = "High"

[[record]]
input_sequence = "AATATTAC"
system_under_test = "Yap3 (UniProt P38749)"
answer_label = "High"

[[record]]
input_sequence = "CGAAGGTA"
system_under_test = "Yap3 (UniProt P38749)"
answer_label = "Low"

[[record]]
input_sequence = "AAAGTACC"
system_under_test = "Yap3 (UniProt P38749)"
answer_label = "Mid"

[[record]]
input_sequence = "GATGACAC"
system_under_test = "Yap3 (UniProt P38749)"
answer_label = "Mid"

[[record]]
input_sequence = "AATACACT"
system_under_test = "Yap3 (UniProt P38749)"
answer_label = "High"

[[record]]
input_sequence = "AACGATAC"
system_under_test = "Yap3 (UniProt P38749)"
answer_label = "Low"

